Test: DSSTox (CPDBAS) Carcinogenic Potency Database Summary SingleCellCall Results
Conditions: animal chronic carcinogenicity bioassays, CPDB summary call
Calls of active or inactive are those of the source.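 Rule for the calls: active = a tumor-causing dose value with its tumor site reported for any sex and species group of a rodent or other animal cancer study; inconclusive = only studies judged inadequate by the national testing program; inactive = tested in at least one study, none positive.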
recordedMetric: outcome

molecule | outcome
CN=C(NC#N)NCCSCc1nc[nH]c1C | inactive; active
ClC(Cl)C(Cl)(Cl)Cl | active
CC1(C)[C@@H](O)CC[C@]2(C)[C@H]3C(=O)C=C4[C@@H]5C[C@@](C)(C(=O)O)CC[C@]5(C)CC[C@@]4(C)[C@]3(C)CC[C@@H]12 | inactive
c1ccc2c(c1)Nc1ccccc1S2 | inactive
O[C@H]([C@H](O)[C@@H](O)CBr)[C@H](O)CBr | active; inactive

Problem: Given the entry CC(CCl)OC(C)CCl (centres undefined) , report its measured outcome.
Result: active

Problem: Given the entry CC(=O)CN(CCO)N=O , report its measured outcome.
Result: active
